Consider the following sequences; for each one, report its binding signal.
- measured.target: OsWRKY34 (Oryza sativa, UniProt Q0JBA9 1-250)
- Sequence (Q0JBA9 entry or part of it): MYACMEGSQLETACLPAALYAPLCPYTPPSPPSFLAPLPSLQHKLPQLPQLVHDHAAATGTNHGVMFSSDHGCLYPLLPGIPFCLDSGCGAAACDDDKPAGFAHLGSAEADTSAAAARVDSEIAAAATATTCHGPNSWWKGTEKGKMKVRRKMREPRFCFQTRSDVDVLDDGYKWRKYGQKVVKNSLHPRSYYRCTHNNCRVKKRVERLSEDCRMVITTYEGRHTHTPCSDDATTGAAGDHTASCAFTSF
- assay.procedure: protein-binding microarray (RPBM); PBS, 2% BSA, 51.3 ng/ul salmon testes DNA, 50 uM zinc acetate, 200 nM TF, 25 C, 1 h; high values mean tight binding
- study.conditions: protein: recombinant; tags: N-terminal polyhistidine and DsRed monomer fusion (pET32a); label: CyDye5-dUTP incorporated in the synthesized complementary strand; 3' TTTTT single-stranded linker to array surface; dsDNA, one strand shown
Over roughly 68,000 sequences, “fluorescence intensity (a.u.)” has its median near 9,100; the highest 2% begin near 16,000. What follows is part of a selection rich in the highest values, with near analogues and random picks from the rest.

Any idea what binding signal was measured for GCTTTCTGTGGTGCATTCTATATTTTTTATATATTATTATCGGAGTCACCTAGTGCAG ?
16400 fluorescence intensity (a.u.)

Any idea what binding signal was measured for TTCGTATTTGTTTCCGTATCCGGATTATTCATATTCGTTTCGGAGTCACCTAGTGCAG ?
8050 fluorescence intensity (a.u.)

Any idea what binding signal was measured for GGGTTTTTTATATACTGGTAAATATTCGCTACCGTATTCGCGGAGTCACCTAGTGCAG ?
9130 fluorescence intensity (a.u.)

Any idea what binding signal was measured for TTTTGCCCTTTTTCTCTCGCCAGCTCGGACCCGTCGTGACCGGAGTCACCTAGTGCAG ?
8730 fluorescence intensity (a.u.)

Any idea what binding signal was measured for GCCATTATATCTGCAGTTCTTTTCTGTGCTAAAATTTTAGCGGAGTCACCTAGTGCAG ?
17100 fluorescence intensity (a.u.)

Any idea what binding signal was measured for TCAGTGTCGGCCGCGATGTCTTTGCAGCTTTGCTGGTTTTCGGAGTCACCTAGTGCAG ?
8090 fluorescence intensity (a.u.)

Any idea what binding signal was measured for TGTAGTTGTGAGTGTATTCGTTTGTACTGTTTTTTTTATACGGAGTCACCTAGTGCAG ?
11900 fluorescence intensity (a.u.)

Any idea what binding signal was measured for TGTTTGACCGTTCGTCTTATTAAAATTTTTTTGTGAAATACGGAGTCACCTAGTGCAG ?
8610 fluorescence intensity (a.u.)

Any idea what binding signal was measured for CACCATTGACTTTTTAGCACATGTTTGACCGTTCGTCTTACGGAGTCACCTAGTGCAG ?
14800 fluorescence intensity (a.u.)
